Values from ChEMBL document CHEMBL4411307

- Tested on: Aspergillus flavus
- procedure_text: Antifungal activity against Aspergillus flavus ATCC MYA-3631 measured after 48 hrs by CLSI M38-A2 protocol based method
- Type: functional
- reported_conditions: ATCC MYA-3631, 48 h
Reported MIC is given for each of the following compounds.

> print(dat)
                            chemical.smiles  recorded.endpoint        result
1  N=C(N)N/N=C/c1ccc(-c2cccc(/C=N/NC(=N)N)c2)cc1                MIC  > 31.3 µg/mL

q: Check the records and state MIC for COc1ccccc1N/N=C(\C)c1ccc(-c2ccc(/C(C)=N/Nc3ccccc3OC)cc2)cc1
a: > 31.3 µg/mL

q: Specify reported MIC for the compound shown: Fc1cc(F)cc(N/N=C/c2ccc(-c3cccc(/C=N/Nc4cc(F)cc(F)c4)c3)cc2)c1
a: > 31.3 µg/mL
